These data points were gathered from patent US12624003B2.

Biological target: UniProtKB Q9H228
Sequence (Q9H228 whole entry, species assumed): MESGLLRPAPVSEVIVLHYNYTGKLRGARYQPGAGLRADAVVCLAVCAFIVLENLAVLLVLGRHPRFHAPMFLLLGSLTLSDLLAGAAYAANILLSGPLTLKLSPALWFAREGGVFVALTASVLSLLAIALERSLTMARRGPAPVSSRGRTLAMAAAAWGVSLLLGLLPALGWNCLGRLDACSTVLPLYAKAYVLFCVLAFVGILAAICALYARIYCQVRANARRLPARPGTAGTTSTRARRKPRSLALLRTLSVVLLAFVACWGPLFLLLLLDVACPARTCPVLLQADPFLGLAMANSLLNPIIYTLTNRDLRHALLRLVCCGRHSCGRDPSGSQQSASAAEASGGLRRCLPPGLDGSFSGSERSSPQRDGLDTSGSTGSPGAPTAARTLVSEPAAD
Assay: [35S]-GTPγS functional binding assay on CHO-S1P5 membranes
Conditions: membranes of CHO cells expressing recombinant S1P5 receptors; measure of S1P5 agonism
Please go through the items and note down their EC50.

Ask: I would be grateful if you could share the reported EC50 for O=C(O)C1CCN(C2CCc3cc(C#Cc4ccccc4F)ccc32)CC1 (single isomer, unassigned) [Compound 6a] .
Result: 10 to 100 nM

Ask: I would be grateful if you could share the reported EC50 for O=C(O)[C@@H]1CCN(C2CCc3cc(-c4ccc(C5CC5)c(Cl)c4)ccc32)C1 (single isomer, unassigned) [Compound 34a] .
Result: ≤ 10 nM

Ask: I would be grateful if you could share the reported EC50 for O=C(Cc1ccc2c(c1)CCC2N1CCC(C(=O)O)CC1)c1c(Cl)cccc1Cl (single isomer, unassigned) [Compound 24] .
Result: 10 to 100 nM

Ask: I would be grateful if you could share the reported EC50 for O=C(O)[C@@H]1CCN(C2CCc3cc(-c4ccc(C5CC5)c(Cl)c4)ccc32)C1 (single isomer, unassigned) [Compound 34b] .
Result: ≤ 10 nM

Ask: I would be grateful if you could share the reported EC50 for O=C(O)C1CCN(C2CCc3cc(-c4ccc(C5CC5)c(Cl)c4)ccc32)CC1 (single isomer, unassigned) [Compound 32b] .
Result: ≤ 10 nM

Ask: I would be grateful if you could share the reported EC50 for O=C(O)[C@H]1CCN(C2CCc3cc(C#Cc4cccc(F)c4)ccc32)C1 (single isomer, unassigned) [Compound 13b] .
Result: 10 to 100 nM

Ask: I would be grateful if you could share the reported EC50 for O=C(O)[C@H]1CCCCN1C1CCc2cc(C#Cc3cccc(F)c3)ccc21 (single isomer, unassigned) [Compound 9b] .
Result: 1000 to 10000 nM

Ask: I would be grateful if you could share the reported EC50 for O=C(O)[C@@H]1CCCCN1C1CCc2cc(C#Cc3cccc(F)c3)ccc21 (single isomer, unassigned) [Compound 8b] .
Result: 1000 to 10000 nM

Ask: I would be grateful if you could share the reported EC50 for O=C(O)[C@H]1[C@@H]2CN(C3CCc4cc(C#Cc5cccc(F)c5)ccc43)C[C@@H]21 (stereo partly shown) [Compound 16] .
Result: 100 to 1000 nM

Ask: I would be grateful if you could share the reported EC50 for O=C(O)C1CN(C2CCc3cc(C#Cc4cccc(F)c4)ccc32)C1 (single isomer, unassigned) [Compound 19] .
Result: ≤ 10 nM

Ask: I would be grateful if you could share the reported EC50 for O=C(O)C1CN(C2CCc3cc(-c4ccc(C5CC5)c(Cl)c4)ccc32)C1 (single isomer, unassigned) [Compound 30a] .
Result: ≤ 10 nM

Ask: I would be grateful if you could share the reported EC50 for O=C(O)C1CN(C2CCc3cc(C#Cc4c(Cl)cccc4Cl)ccc32)C1 (single isomer, unassigned) [Compound 18] .
Result: ≤ 10 nM

Ask: I would be grateful if you could share the reported EC50 for O=C(O)C1CCN(C2CCc3cc(CCc4cccc(Cl)c4)ccc32)CC1 (single isomer, unassigned) [Compound 27b] .
Result: 100 to 1000 nM

Ask: I would be grateful if you could share the reported EC50 for O=C(O)[C@H]1CCN(C2CCc3cc(C#Cc4cccc(F)c4)ccc32)C1 (single isomer, unassigned) [Compound 13a] .
Result: 10 to 100 nM

Ask: I would be grateful if you could share the reported EC50 for O=C(O)C1CCN(C2CCc3cc(C#Cc4cccc(F)c4)ccc32)CC1 (single isomer, unassigned) [Compound 4a] .
Result: 100 to 1000 nM

Ask: I would be grateful if you could share the reported EC50 for CC1(C)CN(C2CCc3cc(C#Cc4cccc(F)c4)ccc32)CCC1C(=O)O (stereo not shown) [Compound 5] .
Result: 100 to 1000 nM
